- target_or_system: T1, human NPRA (human, UniProt P16066 33-1061)
- T1 sequence (looked up): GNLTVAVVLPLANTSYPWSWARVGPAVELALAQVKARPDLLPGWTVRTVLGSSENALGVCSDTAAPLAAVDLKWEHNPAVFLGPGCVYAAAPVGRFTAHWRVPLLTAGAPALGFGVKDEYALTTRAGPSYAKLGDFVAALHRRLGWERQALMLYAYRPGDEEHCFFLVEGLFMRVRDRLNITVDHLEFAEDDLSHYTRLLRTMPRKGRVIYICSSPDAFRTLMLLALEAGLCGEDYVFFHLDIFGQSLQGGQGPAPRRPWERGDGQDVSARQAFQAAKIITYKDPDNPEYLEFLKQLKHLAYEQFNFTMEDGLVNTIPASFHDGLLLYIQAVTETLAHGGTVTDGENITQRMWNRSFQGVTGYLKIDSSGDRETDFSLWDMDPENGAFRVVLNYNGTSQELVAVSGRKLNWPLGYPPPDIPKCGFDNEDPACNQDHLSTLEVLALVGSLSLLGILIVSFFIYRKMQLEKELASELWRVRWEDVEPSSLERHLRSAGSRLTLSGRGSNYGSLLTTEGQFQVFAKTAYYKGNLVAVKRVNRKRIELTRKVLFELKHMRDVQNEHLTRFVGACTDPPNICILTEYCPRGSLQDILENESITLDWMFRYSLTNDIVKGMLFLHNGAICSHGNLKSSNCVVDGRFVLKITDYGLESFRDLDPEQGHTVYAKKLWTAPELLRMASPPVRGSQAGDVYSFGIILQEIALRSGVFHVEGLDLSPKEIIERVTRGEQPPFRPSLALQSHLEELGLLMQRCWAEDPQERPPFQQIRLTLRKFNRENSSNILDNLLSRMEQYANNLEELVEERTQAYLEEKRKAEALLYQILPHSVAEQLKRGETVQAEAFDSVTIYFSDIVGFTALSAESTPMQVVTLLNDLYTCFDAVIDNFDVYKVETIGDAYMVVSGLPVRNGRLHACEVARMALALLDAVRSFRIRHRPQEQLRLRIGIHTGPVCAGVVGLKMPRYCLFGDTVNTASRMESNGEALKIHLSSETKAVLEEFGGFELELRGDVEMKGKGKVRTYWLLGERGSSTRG
- procedure_details: cell-based or functional assay
Is cGMP Assay (EC50, pM) w/Casein at least 1000 pM? Then Y. If not, N.

input: Please tell me: is the binder EKXRSSCFGKRIDRIGHQSGLGCPSFRHGGKSSGAPPPS (HOOC-(CH2)18-CO-(γGlu)-EKEKEKG-(AEEA)6-EK-βAla-RSS[CFGKRIDRIGHQSGLGC]PSFRHGGKSSGAPPPS-NH2; thioacetal linkage between the bracketed Cys) [Example 89] at or over 1000 pM in terms of cGMP Assay (EC50, pM) w/Casein?
output: N

input: Please tell me: is the binder EKXRSSCFGGRIDRIGHYSGLGCPSFRHGGKSSGAPPPS (HOOC-(CH2)18-CO-(γGlu)-EKEKEKG-PEG12-EK-βAla-RSS[CFGGRIDRIGHYSGLGC]PSFRHGGKSSGAPPPS-NH2; thioacetal linkage between the bracketed Cys) [Example 77] at or over 1000 pM in terms of cGMP Assay (EC50, pM) w/Casein?
output: Y

input: Please tell me: is the binder SXRRSSCFGGRIDRIGHYSGLGCPSFRHGGKSSGAPPPS (HOOC-(CH2)18-CO-(γGlu)-EKEKEKG-(AEEA)6-S-4Pal-RRSS[CFGGRIDRIGHYSGLGC]PSFRHGGKSSGAPPPS-NH2; thioacetal linkage between the bracketed Cys) [Example 92] at or over 1000 pM in terms of cGMP Assay (EC50, pM) w/Casein?
output: N

input: Please tell me: is the binder SXRRSSCFGGRIDRIGHYSGLGCPSFRHGSPSSGAPPPS (HOOC-(CH2)18-CO-(γGlu)-EKEKEKG-(AEEA)6-S-4Pal-RRSS[CFGGRIDRIGHYSGLGC]PSFRHGSPSSGAPPPS-NH2; thioacetal linkage between the bracketed Cys) [Example 96] at or over 1000 pM in terms of cGMP Assay (EC50, pM) w/Casein?
output: N
